# target_of_assay: T1, PACAP-R3 (human, UniProt P41587 24-438)
# T1 sequence (looked up): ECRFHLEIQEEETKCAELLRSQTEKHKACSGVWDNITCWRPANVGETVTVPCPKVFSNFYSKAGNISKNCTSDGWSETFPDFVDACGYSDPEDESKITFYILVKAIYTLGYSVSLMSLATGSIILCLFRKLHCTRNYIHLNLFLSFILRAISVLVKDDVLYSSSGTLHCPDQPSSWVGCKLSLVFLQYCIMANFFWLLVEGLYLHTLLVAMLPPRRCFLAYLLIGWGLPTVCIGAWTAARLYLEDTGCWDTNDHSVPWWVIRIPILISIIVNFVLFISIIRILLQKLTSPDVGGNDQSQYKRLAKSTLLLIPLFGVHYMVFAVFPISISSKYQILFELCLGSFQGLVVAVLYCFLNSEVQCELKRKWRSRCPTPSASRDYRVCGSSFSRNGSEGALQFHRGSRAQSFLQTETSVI
# assay_protocol: cell-based or functional assay
Please note: Met applies when R3 Selectivity is 100 or greater, and Not met applies otherwise.

# check: R3 Selectivity of HSDAVFTDNYTRLRKQVAVKKYLQSILKKR [R3P88] is greater than or equal to 100 Not met

# check: R3 Selectivity of HSDAVFTDNYTRLRKQLAAKKYLNDIKKGGT [R3P12] is greater than or equal to 100 Met

# check: R3 Selectivity of HSDAVFTDNYTRLRKQVAAKKYLNSIKKKR [R3P78] is greater than or equal to 100 Met

# check: R3 Selectivity of HSDAVFTDNYTRLRKQVAAKKYLQSIKK [R3P60] is greater than or equal to 100 Met

# check: R3 Selectivity of HSDAVFTDNYTRLRKQMAAKKYLNSIKNRR [R3P147] is greater than or equal to 100 Met

# check: R3 Selectivity of HSDAVFTDNYTRLRKQMAAKKYLNSIGNKR [R3P121] is greater than or equal to 100 Not met

All values here come from patent US6972319B1.
